Reported values of pKd for individual entries
# EXPERIMENTAL SYSTEM: T1, Histidine-tagged human 4-1BB protein (h4-1BB-His) (human, UniProt Q07011 24-186)
# T1 construct: not shown: histidine tag
# MEASUREMENT NOTES: SPR (Biacore T200), antibody on Protein A chip, h4-1BB-His injected;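 further: dissociation phase followed for 300 s, Kd derived as koff divided by kon from the kinetic fit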
For clarity, pKd is expressed as the negative log10 of concentration in mol/L.

45-8F1-mHvKv-IgG2 (antibody, V domains shown) VH: EVQLQQSGTVLARPGASVKMSCKASGYSFTSYWMHWVKQRPGQGLEWIGVIYPGNSDTSYNQKFKGKAKLTAVTSASTAYMDLSSLTNEDSAVYYCTRGITTAPDYWGQGTTLTVSS VL: NIVMTQSPKSMSMSVGERVTLSCKASENVGIHVSWYQQKPEQSPKLLIYGASSGYNGVPDRFTGSGSATDFTLTISSVQPEDLADYHCGQTYSYPFTFGSGTKLEIK = 7.21
5F9-H2K2-IgG4 (antibody, V domains shown, humanized) VH: QVQLKESGPGLVKPSETLSLTCTVSGFSLTTYDISWVRQPPGKGLEWLGVIWTGGGTNYNSSFMSRVTISKDTSKNQVSLKLSSVTAADTAIYYCERVDYWGQGTTVTVSS VL: DVVMTQSPLSLPVTLGQPASISCRSSQSLVHSNGNTYLHWFQQRPGQSPKLLIYKVSNRFSGVPDRFSGSGSGTAFTFKISRVEAEDVGVYYCSQNTHVPWTFGGGTKVEIK = 7.87
45-8E11-mHvKv-IgG2 (antibody, V domains shown) VH: EVQLQQSGTVLARPGASVKMSCKASGYSFTSNWMHWVKQRPGQGLEWIGVIYPGNSDTSYNQKFKGKAKLTAVTSASTAYMELSSLTNEDSAVYYCTRGITTAPEYWGQGTTLTVSS VL: NIVMTQSPKSMSMSVGERVTLSCKASENVGIYVSWYQQKPEQSPKLLIYGASNRYTGVPDRFTGSGSATDFTLTISSVQPEDLADYHCGHTYNYPFTFGSGTKLEIK = 9.22
5F9-H2K4-IgG4 (antibody, V domains shown, humanized) VH: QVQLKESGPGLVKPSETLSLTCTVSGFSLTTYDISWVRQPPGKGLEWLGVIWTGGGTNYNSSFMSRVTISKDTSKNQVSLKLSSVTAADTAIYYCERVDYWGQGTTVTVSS VL: DVVMTQSPLSLPVTLGDPASISCRSSQSLVHSNGNTYLHWYLQRPGQSPKLLIYKVSNRFSGVPDRFSGSGSGTAFTFKISRVEAEDVGVYYCSQNTHVPWTFGGGTKLEIK = 7.91

// query Fill in: pKd of 55-8F6-mHvKv-IgG2 (antibody, V domains shown) VH: QVQLQQPGAELVRPGASVKLSCKASGYIFTSYWINWVKQRPGQGLEWIGNIYPSDSYTNYNQKFKDKATLTVDKSSSTAYMQLSSPTSEDSAVYYCTRFHYGSSPFDNWGQGTTLTVSS VL: DIQMTQSTSSLSASLGDRVTISCRASQDISHYLNWYQQKPDGTVKLLIYYTSRLHSGVPSRFSGSGSGTDYSLTISNLEQEDFATYFCQQGHTLPRTFGGGTKLEIK is ___
// result 8.66
